target: Neu5Ac(a2-3)Gal(b1-3)GalNAc(b1-4)[Neu5Ac(a2-3)]Gal(b1-4)Glc; assay: glycan array binding signal (z-score within array); higher = stronger binding; conditions: glycan notation: IUPAC condensed, linker removed
The sample as a whole holds a higher share of the strongest signals than the screen did.
Property Measured: glycan array binding signal (z-score)

Binder	Experimental Result
CTLY 1 (Homo sapiens), Q6ZS10 (protein) AITCPEGWLPFEGKCYYFSPSTKSWDEARMFCQENYSHLVIINSFAEHNFVAKAHGSPRVYWLGLNDRAQEGDWRWLDGSPVTLSFWEPEEPNNIHDEDCATMNKGGTWNDLSCYKTTYWICERKGLNDIFEAQKIEWHE	-0.231

These data points were gathered from the supplement of paper PMC8728848.
